target: canine FcRn (FcRn large subunit with canine beta-2-microglobulin) (canine); assay: SPR pH 5.9, IgG coupled to C1 chip, 1:1 kinetic fit
Please respond with reported Kd for every item in the list.
Unit µM implied. Number only.

Query anti-NGF canine IgGB antibody, Fc variant A426H + T286Y (antibody, part only; not given: anti-NGF variable domains and light chain, not shown: another chain or arm of the molecule; small tags and cut ends) Fc: APEMLGGPSVFIFPPKPKDTLLIARTPEVTCVVVDLDPEDPEVQISWFVDGKQMQYAKTQPREEQFNGTYRVVSVLPIGHQDWLKGKQFTCKVNNKALPSPIERTISKARGQAHQPSVYVLPPSREELSKNTVSLTCLIKDFFPPDIDVEWQSNGQQEPESKYRTTPPQLDEDGSYFLYSKLSVDKSRWQRGDTFICHVMHEALHNHYTQESLSHSPGK yields Kd of 0.0213

Query anti-NGF canine IgGB antibody, Fc variant A426H (antibody, part only; not given: Anti-NGF variable domains, not shown: another chain or arm of the molecule; small tags and cut ends) Fc: APEMLGGPSVFIFPPKPKDTLLIARTPEVTCVVVDLDPEDPEVQISWFVDGKQMQTAKTQPREEQFNGTYRVVSVLPIGHQDWLKGKQFTCKVNNKALPSPIERTISKARGQAHQPSVYVLPPSREELSKNTVSLTCLIKDFFPPDIDVEWQSNGQQEPESKYRTTPPQLDEDGSYFLYSKLSVDKSRWQRGDTFICHVMHEALHNHYTQESLSHSPGK yields Kd of 0.115

Query anti-NGF canine IgGB antibody, Fc variant A426Y + T286L + Y436H (antibody, part only; not given: anti-NGF variable domains and light chain, not shown: another chain or arm of the molecule) Fc: APEMLGGPSVFIFPPKPKDTLLIARTPEVTCVVVDLDPEDPEVQISWFVDGKQMQLAKTQPREEQFNGTYRVVSVLPIGHQDWLKGKQFTCKVNNKALPSPIERTISKARGQAHQPSVYVLPPSREELSKNTVSLTCLIKDFFPPDIDVEWQSNGQQEPESKYRTTPPQLDEDGSYFLYSKLSVDKSRWQRGDTFICYVMHEALHNHHTQESLSHSPGK yields Kd of 0.00726

FYI, the data here is from patent US20240327497A1.
